- assayRemarks: Plasma pharmacokinetics
- Assay type: in vivo, human
- experimentalSetup: human, plasma, oral, 140 mg, t max, median (range), Steady state (cycle 1, day 8); Gastric cancer N = 10; 140 mg once daily
propertyMeasured: Tmax
State the value, then name its unit.

Query: // returns reported Tmax for input `CNC(=O)n1ccc2cc(Oc3ccnc(NC(=O)c4ccc(C5CCN(CCO)CC5)cc4)c3)c(OCCOC)cc21`
Result: 3.98 h

* * *

- assayRemarks: Plasma pharmacokinetics
- Type: in vivo, human
- experimentalSetup: human, plasma, oral, 140 mg, t max, median (range), Steady state (cycle 1, day 8); Cholangiocarcinoma N = 6; 140 mg once daily
propertyMeasured: Tmax (h)
Return type: number; implicit unit h.

Query: // returns reported Tmax for input `CNC(=O)n1ccc2cc(Oc3ccnc(NC(=O)c4ccc(C5CCN(CCO)CC5)cc4)c3)c(OCCOC)cc21`
Result: 3.95
